Origin of the recorded values: patent US20240300940A1

# assayOverview: Mouse plasma pharmacokinetics
# setupConditions: BALB/c, mouse, in vivo, iv, 3 mg/kg
measuredAttribute: MRT
# do not omit the unit; it follows the number

Recorded MRT (compound CC1(C)C2CN(c3ccc4nc5ccc(N6CC7C(C6)C7(C)C)cc5[s+]c4c3)CC21 (stereo not shown) ): 7 h

* * *

# Tested on: E. coli ATCC25922
# assayOverview: MIC assay, serial dilution
# setupConditions: Escherichia coli, ATCC25922, E. coli ATCC25922
Form field: MIC (one value per entry).
Use µg/mL as the unit, but write only the number.

Worked examples, 2 compounds total:
compound	targetEntity	readoutUnit	MIC
CC(C)(C)c1cc(N2CCCC2)cc2[s+]c3cc(N4CCCC4)cc(N4CCCC4)c3nc12 [Compound 130]	E. coli ATCC25922	µg/mL	12.5
CC(C)(C)c1cc(N2CCCC2)cc2[s+]c3cc(N4CCCC4)cc(Br)c3nc12 [Compound 132]	E. coli ATCC25922	µg/mL	100

Now for the compound whose MIC we want.
Per the record, CC1(C)C2CN(c3ccc4nc5ccc(N6CCCC6)cc5[s+]c4c3)CC21 (stereo not shown) [Compound 150] has MIC of 100
